# System: K562
# ASSAY_SUMMARY: NCI tumour cell line growth inhibition, 48 h
Activity calls are given as the source filed them. No stated cut-off is given here; in the data, active = GI50 up to about 1.1 µM and inactive = higher.
Entry note: the call must match one of active, inactive

Illustrative cases are given below, each with its answer.
C=CCNC(=S)N1CC(C)C(=O)Nc2cc(Cl)ccc21 (stereo not given) ... inactive
COc1ccc(/N=N/C(=O)NC(CC(C)C)C(=O)NC(Cc2ccccc2)C(=O)O)cc1 (stereo not given) ... active
C=CCN1CCC(c2cc(C(=O)OCC)[nH]c2-c2cc(C)no2)C1=O (stereo not given) ... inactive
O=C(CC(=O)n1nc(-c2ccccc2)c(/N=N/c2ccccc2C(=O)O)c1-c1ccccc1)Nc1ccc(Cl)cc1 ... inactive

Query: Per the assay record, what outcome was assigned to c1ccc2nn(C3CCCO3)nc2c1 (stereo not given) ?
Result: inactive
